Where these numbers come from: patent US20240317858A1

# Study Target: T1, Rhesus CD3εδ Fc heterodimer (rhesus)
# T1 construct: extracellular domain; also called Rh CD3εδ-Fc
# Test Description: BLI (Octet), Fab monovalent, pH 7.4
Quantity Name: pKd
Recall that pKd is obtained by taking minus log10 of the concentration measured in molar.

1) Antibody No. V018 (ADI-76361) Fab (Fab, V domains shown, Fab by papain digestion of the IgG1) VH: QVQLVQSGAEVKKPGASVKVSCKASGFDIKDYYMHWVRQAPGQRLEWMGWIDLEEGNTIYDAKFQGRVTITRDTSASTAYMELSSLRSEDTAVYYCARDAYGRYFYDVWGQGTLVTVSS VL: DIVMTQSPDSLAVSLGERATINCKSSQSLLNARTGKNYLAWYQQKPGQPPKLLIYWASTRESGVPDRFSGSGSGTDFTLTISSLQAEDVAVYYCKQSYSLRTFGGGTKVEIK    7.54

Then there is this binder:
binder Antibody No. V014 (ADI-76357) Fab (Fab, V domains shown, Fab by papain digestion of the IgG1) VH: QVQLVQSGAEVKKPGASVKVSCKASGFDIKDYYMHWVRQAPGQRLEWMGWIDLENANTIYDAKFQGRVTITRDTSASTAYMELSSLRSEDTAVYYCARDQYGRYFYDVWGQGTLVTVSS VL: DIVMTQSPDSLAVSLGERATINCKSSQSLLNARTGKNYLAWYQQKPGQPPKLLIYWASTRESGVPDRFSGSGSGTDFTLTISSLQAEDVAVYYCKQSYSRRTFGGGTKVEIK , pKd observed: 7.41
